Hey, just so you know, these numbers are from PubChem BioAssay (NCI).

measurementDescription: NCI Yeast Anticancer Drug Screen. Data for the rad50 strain (AID 155);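 note: 0% = growth of vehicle-only cultures of the same strain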
recordedConditions: S. cerevisiae rad50 strain growth inhibition; at 50.0 µM
About 79,000 compounds went through this panel and 15% of them were active in at least one assay; those are over-represented in the sample as a whole. Active and inactive are the calls of the source. Cut-off read from the data, not from the text of the source: active = growth inhibition above about 70%; inactive = the rest.
Hello, when you answer, please use one of the following outcomes: 1 (yes) (active), 0 (no) (inactive)

Example cases with answers are listed next.
>>> df
                                   compound  assignedclass
0                          OC[P+](CO)(CO)CO         0 (no)
1  CCCOC(=O)c1cncn1C(C)c1ccccc1 (configuration not stated)         0 (no)
2  CCC[CH2][Sn]1([CH2]CCC)[O]CC(CN2CCCCC2)[O]1 (configuration not stated)        1 (yes)

## Task Recorded test outcome, item O=C(CCl)Nc1ccccc1Cl
## Result 0 (no)

## Task And what about the compound C=CC[NH-].C=CC[NH-].CC(=O)CC(C)=O.CC(=O)CC(C)=O.[Ni+2] ?
## Result 0 (no)

* * *

measurementDescription: NCI Yeast Anticancer Drug Screen. Data for the sgs1 mgt1 strain (AID 161);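 note: 0% = growth of cultures given vehicle only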
recordedConditions: S. cerevisiae sgs1 mgt1 strain, at 50.0 µM
Procedure: Growth inhibition of yeast strains with defined genetic alterations is measured as a screen for potential anti-cancer activity. Selected strains with alterations in DNA damage repair or cell cycle control were exposed to compounds and growth inhibition was measured relative to vehicle treated controls. The strain used in this assay is sgs1 mgt1
Compounds without any hit were thinned out: in the full panel of roughly 79,000, 15% have a hit. Activity calls are given as the source filed them. Rule as the data show it: active = growth inhibition above about 70%; inactive = the rest.
Hello, when you answer, please use one of the following outcomes: Y for active, N for inactive

Example cases with answers are listed next.
In [3]: df
Out[3]:
                                   compound  assignedclass
0  CC12CCC3C(CCC4(O)C=CCCC34C=O)C1(O)CC(O)C2c1ccc(=O)oc1 (centres undefined)              N
1           O=C(CN1CC1)NCCCCCCCNC(=O)CN1CC1              N
2  COC1C(=[N+]=[N-])C(=O)NC(=O)N1C (centres undefined)              N
3  CC1=CC(C)C/C=C/C2C3OC3(C)C(C)C3C(Cc4c[nH]c5ccccc45)NC(=O)C23C(=O)C=CC(=O)C1O (centres undefined)              Y
4                         NC(=O)C(Cl)(Cl)Cl              N
5  CC(C)NC(C)C(C)c1ccccc1 (centres undefined)              N
6               CCCCCCCC[As](=O)(O)CCCCCCCC              N
7  [CH3][Sn]1([CH3])[O]C(=O)c2ccccc2C(=O)[O]1              N
8  CC12C(=O)C=CCC1=CCC1C2CCC2(O)C(=O)OC3(C)C4CC5(C)C(COC16OC23C5C6=O)C(=O)O4 (centres undefined)              N
9                          COc1ccc(CC#N)cc1              N

## Task Recorded test outcome, item O=C1C=CC(=Nc2cc(Cl)c(O)c(Cl)c2)C=C1
## Result N

## Task And what about the compound CCOP(=O)(CSCCC1(C)NC(=O)NC1=O)OCC (centres undefined) ?
## Result N

## Task And what about the compound CC(=O)OCC1OC(OC(C)=O)C(N(CCCl)CCCl)C(OC(C)=O)C1OC(C)=O (centres undefined) ?
## Result N

## Task And what about the compound Cc1ccccc1-n1c(CCl)nc2ccc(Br)cc2c1=O ?
## Result N

## Task And what about the compound C[C@]12CC[C@H](O)C[C@H]1CC[C@@H]1[C@@H]2CC[C@]2(C)[C@@H](C3=CC(=O)OC3)CC[C@]12O ?
## Result N

## Task And what about the compound S=C(N/N=C/c1ccc(Cl)cc1)NC1CN2CCC1CC2 (centres undefined) ?
## Result N

## Task And what about the compound N.N.N.N.N.N.[I-].[Os] ?
## Result N

## Task And what about the compound COc1ccc(CO)cc1 ?
## Result N

## Task And what about the compound O=C(O)c1cc(C(=O)O)cc(S(=O)(=O)F)c1 ?
## Result N

## Task And what about the compound Cc1c([N+](=O)[O-])cc2c(c1[N+](=O)[O-])C(C)(C)CC2(C)C ?
## Result N

## Task And what about the compound O=C1CCCC1Cl (centres undefined) ?
## Result N

## Task And what about the compound CN(C)/N=C(\CCN1CCCC1)CC(c1ccccc1)c1c(O)c2ccccc2oc1=O (centres undefined) ?
## Result N

## Task And what about the compound CC1([N+](=O)[O-])COP(=O)(NCc2ccccc2)OC1 (centres undefined) ?
## Result N

## Task And what about the compound ClC1=C(Cl)C2(Cl)C3C(C4(Cl)C(Cl)=C(Cl)C3(Cl)C4(Cl)Cl)C2(Cl)C1(Cl)Cl (centres undefined) ?
## Result N
